meta.source: patent US20260199382A1

Tested on: MDA-MB-231
assayProtocol: Flow cytometry analysis of cell labeling (labeling efficiency of azido compounds) in MDA-MB-231
Assay type: cell-based
conditionsUsed: 25 μM, 48 h, mean fluorescence compared with Ac4ManNAz (AAM) positive control
readoutKind: AAM % (%)
State the answer as a number, implicitly in %.

molecule	experimentalSystem	valueUnits	numericResult
CCCCCCOC(=O)[C@H](C)NP(=O)(OC[C@H]1OC(OC(C)=O)[C@@H](NC(=O)CN=[N+]=[N-])[C@@H](OC(C)=O)[C@@H]1OC(C)=O)Oc1ccccc1 (stereo partly shown)	MDA-MB-231	%	104
CC(=O)OC1O[C@H](COP(=O)(N[C@@H](C)C(=O)OCc2cccc3ncccc23)Oc2ccccc2)[C@@H](OC(C)=O)[C@H](OC(C)=O)[C@@H]1NC(=O)CN=[N+]=[N-] (stereo partly shown)	MDA-MB-231	%	109
CCCCOC(=O)[C@H](C)NP(=O)(OC[C@H]1OC(OC(C)=O)[C@@H](NC(=O)CN=[N+]=[N-])[C@@H](OC(C)=O)[C@@H]1OC(C)=O)Oc1ccccc1 (stereo partly shown)	MDA-MB-231	%	99

Q) Reported AAM %, molecule CCC(CC)COC(=O)[C@H](C)NP(=O)(OC[C@H]1OC(OC(C)=O)[C@@H](NC(=O)CN=[N+]=[N-])[C@@H](OC(C)=O)[C@@H]1OC(C)=O)Oc1ccccc1 (stereo partly shown) : ____
A) 98

Q) Reported AAM %, molecule CC(=O)OC1O[C@H](COP(=O)(N[C@@H](C)C(=O)OC(C)C)Oc2ccccc2)[C@@H](OC(C)=O)[C@H](OC(C)=O)[C@@H]1NC(=O)CN=[N+]=[N-] (stereo partly shown) : ____
A) 101

Q) Reported AAM %, molecule CC(=O)OC1O[C@H](COP(=O)(N[C@@H](C)C(=O)OCc2ccnc3ccccc23)Oc2ccccc2)[C@@H](OC(C)=O)[C@H](OC(C)=O)[C@@H]1NC(=O)CN=[N+]=[N-] (stereo partly shown) : ____
A) 144

Q) Reported AAM %, molecule CC(=O)OC1O[C@H](COP(=O)(N[C@@H](C)C(=O)OC(C)(C)C)Oc2ccccc2)[C@@H](OC(C)=O)[C@H](OC(C)=O)[C@@H]1NC(=O)CN=[N+]=[N-] (stereo partly shown) : ____
A) 51

###

Here the recorded AAM % is given for each entry.
Tested on: A549 cells
assayProtocol: Flow cytometry analysis of cell labeling (labeling efficiency of azido compounds) in A549 cells
Type: cell-based
conditionsUsed: 25 μM, 48 h, mean fluorescence compared with Ac4ManNAz (AAM) positive control
State the answer as a number, implicitly in %.

Sample answers from the record:
molecule	AAM % [%]
CC(=O)OC1O[C@H](COP(=O)(N[C@@H](C)C(=O)OC(C)C)Oc2ccccc2)[C@@H](OC(C)=O)[C@H](OC(C)=O)[C@@H]1NC(=O)CN=[N+]=[N-] (some centres unmarked)	89
CC(=O)OC[C@H]1OC(OP(=O)(N[C@@H](C)C(=O)OC(C)c2ccccc2)Oc2ccccc2)[C@@H](NC(=O)CN=[N+]=[N-])[C@@H](OC(C)=O)[C@@H]1OC(C)=O (some centres unmarked)	42
CC(=O)OC1OC(COP(=O)(NC(C)(C)C(=O)OC(C)c2ccccc2)Oc2ccccc2)C(OC(C)=O)C(OC(C)=O)C1NC(=O)CN=[N+]=[N-] (centres unmarked)	51
CC(=O)OC1OC(COP(=O)(N[C@H](C(=O)OC(C)c2ccccc2)C(C)C)Oc2ccccc2)C(OC(C)=O)C(OC(C)=O)C1NC(=O)CN=[N+]=[N-] (some centres unmarked)	20

Below: the item to evaluate.
Q) Reported AAM %, molecule CC(=O)OC1OC(COP(=O)(N[C@@H](C)C(=O)OC(C)c2ccccc2)Oc2ccccc2)C(OC(C)=O)C(OC(C)=O)C1NC(=O)CN=[N+]=[N-] (some centres unmarked) : ____
A) 48
